Where do the numbers come from? From ChEMBL document CHEMBL5579851.

Tested on: Pichia kudriavzevii
Assay: Antifungal activity against Candida krusei 4996 assessed as inhibition of fungal growth incubated for 48 hrs by CLSI based broth microdilution assay
Assay type: functional
observed.property: MIC (µg/mL)
The reply should be a number in µg/mL, with the unit left off.

Give the measured MIC for C[C@@H](OCc1ccn(Cc2cc(Cl)ccc2Cl)n1)[C@](O)(Cn1cncn1)c1ccc(F)cc1F 4

Give the measured MIC for C[C@@H](OCc1ccn(Cc2ccc([N+](=O)[O-])cc2)n1)[C@](O)(Cn1cncn1)c1ccc(F)cc1F 4

Give the measured MIC for C[C@@H](OCc1ccn(Cc2cc(F)ccc2F)n1)[C@](O)(Cn1cncn1)c1ccc(F)cc1F 4

Give the measured MIC for C[C@@H](OCc1ccn(Cc2ccc(F)cc2)n1)[C@](O)(Cn1cncn1)c1ccc(F)cc1F 4

Give the measured MIC for C[C@@H](OCc1ccn(Cc2ccc(Cl)cc2)n1)[C@](O)(Cn1cncn1)c1ccc(F)cc1F 2

Give the measured MIC for C[C@@H](OCc1ccn(Cc2c(Cl)cccc2Cl)n1)[C@](O)(Cn1cncn1)c1ccc(F)cc1F 8

Give the measured MIC for C[C@@H](OCc1ccn(Cc2cccc(Cl)c2)n1)[C@](O)(Cn1cncn1)c1ccc(F)cc1F 4

Give the measured MIC for C[C@@H](OCc1ccn(Cc2cccc(Cl)c2Cl)n1)[C@](O)(Cn1cncn1)c1ccc(F)cc1F 8

Give the measured MIC for C[C@@H](OCc1ccn(Cc2ccc(F)cc2Cl)n1)[C@](O)(Cn1cncn1)c1ccc(F)cc1F 4
